Each recorded value in this set is attributed to patent US20220380471A1.

Overview of reported ELISA signal across a group of binders:
Target: T1, rat B7H3-His (rat, UniProt Q7TPB4 29-244, limits assumed)
T1 construct: not shown: His tag
T1 sequence (looked up): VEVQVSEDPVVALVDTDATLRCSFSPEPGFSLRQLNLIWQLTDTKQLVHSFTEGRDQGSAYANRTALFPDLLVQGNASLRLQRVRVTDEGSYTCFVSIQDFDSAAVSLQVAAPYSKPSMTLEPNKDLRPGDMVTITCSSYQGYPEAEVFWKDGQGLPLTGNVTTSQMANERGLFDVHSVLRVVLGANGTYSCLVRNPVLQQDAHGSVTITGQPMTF
Assay: ELISA, purified VHH

Binder	ELISA signal
RWG8 (VHH, Camel VHH; tag not described; also called camel antibody RWG8) VHH: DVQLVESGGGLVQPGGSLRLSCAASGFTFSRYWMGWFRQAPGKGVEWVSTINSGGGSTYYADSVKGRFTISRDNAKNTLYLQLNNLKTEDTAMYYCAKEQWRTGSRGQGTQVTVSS	0.0696
RWH1 (VHH, Camel VHH; tag not described; also called camel antibody RWH1) VHH: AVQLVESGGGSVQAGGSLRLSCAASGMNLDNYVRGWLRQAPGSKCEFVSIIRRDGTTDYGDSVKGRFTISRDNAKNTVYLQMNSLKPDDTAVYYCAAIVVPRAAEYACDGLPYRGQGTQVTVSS	0.134
RWG4 (VHH, Camel VHH; tag not described; also called camel antibody RWG4) VHH: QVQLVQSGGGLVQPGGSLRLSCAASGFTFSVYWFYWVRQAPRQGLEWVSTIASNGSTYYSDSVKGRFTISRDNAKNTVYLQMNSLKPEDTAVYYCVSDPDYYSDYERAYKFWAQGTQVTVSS	1.5
